Data origin, for the record: patent US9233107B2

Kindly supply the reported inhibition at 10 µM values for the records listed here.
Test system: SVG-A cells
method-description: Total cell number (DAPI+ events) / cytotoxicity in the JCV infectivity assay
condition: Homo sapiens, SVG-A, read-out: % Inhibition total Cell Number @10 uM
Answers are plain numbers, in %.

Recorded results for 5 molecules are shown here.
1. Cc1c(Nc2ncccc2C(=O)O)cccc1C(F)(F)F    -4
2. O=c1cc(-c2ccccc2)oc2cc(O)cc(O)c12    -12
3. O=S1OCC2C(CO1)C1(Cl)C(Cl)=C(Cl)C2(Cl)C1(Cl)Cl (stereo not shown) [ENDOSULFAN]    19
4. COc1cc(/C=C/C(=O)N2CCC=CC2=O)cc(OC)c1OC    -7
5. O=C(O)c1ccccc1Nc1cccc(C(F)(F)F)c1    14

Batch request: inhibition at 10 µM for each of the following molecules.
1. CN1CCCN=C1/C=C/c1cccs1 [PYRANTEL PAMOATE]
2. COc1ccc(C(=O)c2ccccc2O)c(O)c1 [DIOXYBENZONE, 2,2′-Dihydroxy-4-methoxybenzophenone]

1: 12; 2: 11

* * *

Tested on: SVG-A cells
method-description: Total cell number (DAPI+ events) / cytotoxicity in the JCV infectivity assay
condition: 10 uM; cytotoxicity, DAPI count
observable: % Inhibition total Cell Number @10 uM (%)
One number for each entry, in %.

Recorded results for 4 molecules are shown here.
1) O=C(O)c1cc([N+](=O)[O-])ccc1NCCCc1ccccc1    −9
2) C[C@@H]1CC[C@@]2(OC1)O[C@H]1C[C@H]3[C@@H]4CC[C@H]5C[C@@H](O)CC[C@]5(C)C4=CC[C@]3(C)[C@H]1[C@@H]2C [3beta-HYDROXYISOALLOSPIROST-9(11)-ENE]    3
3) O=c1cc(-c2ccccc2)oc2cccc(O)c12    12
4) COc1cc(OC)c(C(C)=O)c(OC)c1    5

Alright, here's another molecule for you.
Output % Inhibition total Cell Number @10 uM of `COc1cc2c(cc1-c1cc3cc4ccoc4cc3oc1=O)OCO2`
17

* * *

Kindly supply the reported CC50 at 3 days values for the records listed here.
method-description: in vitro
condition: human
Counter-ions that a name gives are not always drawn.

1. COc1ccc([C@@H]2Sc3ccccc3N(CCN(C)C)C(=O)[C@@H]2OC(C)=O)cc1 [DILTIAZEM HYDROCHLORIDE]    > 40 µM

Alright, here's another molecule for you.
Output CC50 at 3 days of `CCC(=O)Nc1ccc(Cl)c(Cl)c1`
> 40 µM

* * *

System: JCV strain Mad1/SVEΔ
method-description: microbe, parasite or virus in culture
Format: cell-based, JC polyomavirus (JCV)
condition: 10 uM; SV40 transformed glial cells, Mad-1/SVEΔ JCV
observable: % Inhibition (total #JCV+) @10 uM (%)
Give bare numbers, in %.

Recorded results for 2 compounds are shown here.
1. CCOc1nc2cccc(C(=O)OC(C)OC(=O)OC3CCCCC3)c2n1Cc1ccc(-c2ccccc2-c2nn[nH]n2)cc1 (stereo not shown)    54
2. C[C@@H]1CC[C@@]2(OC1)O[C@H]1C[C@H]3[C@@H]4CC[C@H]5C[C@@H](O)CC[C@]5(C)C4=CC[C@]3(C)[C@H]1[C@@H]2C [3beta-HYDROXYISOALLOSPIROST-9(11)-ENE]    25

Batch request: % Inhibition (total #JCV+) @10 uM for each of the following compounds.
1. COc1cc(OC)c(C(C)=O)c(OC)c1
2. COc1cc(C)c(C(=O)Oc2cc(C)c(C(=O)O)c(O)c2C)c(OC)c1C
3. O=C(O)c1cc([N+](=O)[O-])ccc1NCCCc1ccccc1

33
44
14

Batch request: % Inhibition (total #JCV+) @10 uM for each of the following compounds.
1. COc1ccc(-c2cc(=O)c3c(O)c(OC)c(OC)c(OC)c3o2)cc1OC
2. COc1ccc([C@@H](C)C(=O)c2ccc(O)cc2O)cc1 [(R)-ANGOLENSIN]

38
18
